B1: MBP–Hrp1p NLS [S. cerevisiae] / Kap104p [yeast (S. cerevisiae)] (parent)
chain 1: RDRNDRDRDYNHRSGGNHRRNGRGGRGGYNRRNNGYHPYNR
chain 2: MASTWKPAEDYVLQLATLLQNCMSPNPEIRNNAMEAMENFQLQPEFLNYLCYILIEGESDDVLKQHYSLQDLQNNRATAGMLLKNSMLGGNNLIKSNSHDLGYVKSNIIHGLYNSNNNLVSNVTGIVITTLFSTYYRQHRDDPTGLQMLYQLLELTSNGNEPSIKALSKIMEDSAQFFQLEWSGNTKPMEALLDSFFRFISNPNFSPVIRSESVKCINTVIPLQTQSFIVRLDKFLEIIFQLAQNDENDLVRAQICISFSFLLEFRPDKLVSHLDGIVQFMLHLITTVNEEKVAIEACEFLHAFATSPNIPEHILQPYVKDIVPILLSKMVYNEESIVLLEASNDDDAFLEDKDEDIKPIAPRIVKKKEAGNGEDADDNEDDDDDDDDEDGDVDTQWNLRKCSAATLDVMTNILPHQVMDIAFPFLREHLGSDRWFIREATILALGAMAEGGMKYFNDGLPALIPFLVEQLNDKWAPVRKMTCWTLSRFSPWILQDHTEFLIPVLEPIINTLMDKKKDVQEAAISSVAVFIENADSELVETLFYSQLLTSFDKCLKYYKKKNLIILYDAIGRFAEKCALDETAMQIILPPLIEKWALLSDSDKELWPLLECLSCVASSLGERFMPMAPEVYNRAFRILCHCVELEAKSHQDPTIVVPEKDFIITSLDLIDGLVQGLGAHSQDLLFPQGTKDLTILKIMLECLQDPVHEVRQSCFALLGDIVYFFNSELVIGNLEDFLKLIGTEIMHNDDSDGTPAVINAIWALGLISERIDLNTYIIDMSRIILDLFTTNTQIVDSSVMENLSVTIGKMGLTHPEVFSSGAFANDSNWNKWCLSVNALDDVEEKSSAYMGFLKIINLTSTEVTMSNDTIHKIVTGLSSNVEANVFAQEIYTFLMNHSAQISAINFTPDEISFLQQFTS

Variants of: B1
Test: ITC
Settings: with Kap104p [yeast (S. cerevisiae)]; parent: 1
REPORTED PROPERTY: ratio to parent

As a guide, the following entries are already answered.
>>> value_reported("chain 1 R19K R20K R23K R26K")
1.1
>>> value_reported("chain 1 R31A")
1.1

P = chain 1 R32A
Q = chain 1 Y36L
R = chain 1 R19A Y36A
QUERY: hey, can you rank those variants up there by ratio to parent? biggest number first please Show the ranking through the labels, in the order asked for.
RESULT: R, Q, P
